// provenance: patent US10952436B2

I'd be grateful if you could share measured melting point for these entries.

compound="O=C(Nc1cnc2c(F)cccc2c1)C(Cc1ccccc1)CC(F)(F)F (stereo not drawn) [Compound E-82]" result="161 to 164 °C"
compound="C=C(Cl)CC(C)(Cc1ccccc1)C(=O)Nc1cnc2c(F)cccc2c1 (stereo not drawn) [Compound E-53]" result="148 to 150 °C"
compound="CC(C)CC(C)(Cc1ccccc1)C(=O)Nc1cnc2c(F)cccc2c1 (stereo not drawn) [Compound E-87]" result="140 to 142 °C"

Batch lookup, melting point per entry.
1. Cc1cccc2cc(NC(=O)C(C)(Cc3ccccc3)CC(F)(F)F)cnc12 (stereo not drawn) [Compound E-59]
2. C=C(C)CC(C)(Cc1cccc(F)c1)C(=O)Nc1cc2cccc(F)c2nc1C (stereo not drawn) [Compound E-12]
3. CC(C)CC(C)(Cc1ccccc1)C(=O)Nc1cnc2ccccc2c1 (stereo not drawn) [Compound E-85]

Reply |
["123 to 125 °C", "124 to 126 °C", "147 to 148 °C"]

Could you tell me melting point for each of these compounds? They are listed below.
1. Cc1nc2c(F)cccc2cc1NC(=O)C(C)(Cc1cccc(F)c1)CC(C)C (stereo not drawn) [Compound E-10]
2. O=C(Nc1cnc2c(F)cccc2c1)C(Cc1ccccc1)CC(F)(F)Cl (stereo not drawn) [Compound E-58]
3. C=C(C)CC(Cc1ccccc1)C(=O)Nc1cnc2c(F)cccc2c1 (stereo not drawn) [Compound E-94]

Reply |
1. 93 to 95 °C
2. 65 to 70 °C
3. 170 to 172 °C

====

Can you tell me inhibition of growth at 200 ppm for the items I'm about to list?
# Test system: Gaeumannomyces graminis
# Assay Notes: Gaeumannomyces graminis/Liquid Culture (Take-all of Cereals)
# Assay type: cell-based
# Setup Conditions: 200 ppm, liquid culture, compared to untreated control, 4-5 days after application, read-out: control of Gaeumannomyces graminis

compound="C=C(F)CC(C)(Cc1ccccc1)C(=O)Nc1cnc2c(F)cccc2c1 (stereo not drawn)" assayed_system="Gaeumannomyces graminis" result="≥ 80%"
compound="CC(F)(F)CC(C)(Cc1ccccc1)C(=O)Nc1cnc2c(F)cccc2c1 (stereo not drawn)" assayed_system="Gaeumannomyces graminis" result="≥ 80%"
compound=CC(C)(Cc1ccccc1)C(=O)Nc1cnc2c(F)cccc2c1 assayed_system="Gaeumannomyces graminis" result="≥ 80%"
compound="C=C(C)CC(C)(Cc1ccccc1)C(=O)Nc1cc2cccc(F)c2nc1C (stereo not drawn)" assayed_system="Gaeumannomyces graminis" result="≥ 80%"
compound="CCCC(C)(Cc1ccccc1)C(=O)Nc1cnc2c(F)cccc2c1 (stereo not drawn)" assayed_system="Gaeumannomyces graminis" result="≥ 80%"

// batch mode: one inhibition of growth at 200 ppm value per listed entry
1. CC(C)CC(C)(Cc1ccccc1)C(=O)Nc1cnc2ccccc2c1 (stereo not drawn)
2. C=C(C)CC(C)(Cc1ccccc1)C(=O)Nc1cnc2c(F)cccc2c1C (stereo not drawn)

Reply |
1. ≥ 80%
2. ≥ 80%

# return inhibition of growth at 200 ppm for each item in the list
1. CC(C)CC(C#N)(Cc1ccccc1)C(=O)Nc1cnc2c(F)cccc2c1 (stereo not drawn)
2. CC1(CC(C)(Cc2ccccc2)C(=O)Nc2cnc3c(F)cccc3c2)CC1 (stereo not drawn)

Reply |
≥ 80%
≥ 80%

====

Record form. Attribute: melting point. Fill in for each entry.

molecule="COCN(C(=O)C(C)(Cc1ccccc1)CC(F)(F)F)c1cnc2c(F)cccc2c1 (centres unmarked) [Compound E-33]" result="108 to 110 °C"
molecule="COC(Cc1ccccc1)(CC(C)C)C(=O)Nc1cnc2c(F)cccc2c1 (centres unmarked) [Compound E-38]" result="133 to 135 °C"
molecule="CC1(CC(Cc2ccccc2)C(=O)Nc2cnc3c(F)cccc3c2)CC1 (centres unmarked)" result="135 to 136 °C"
molecule="CCCCC(C)(Cc1ccccc1)C(=O)Nc1cnc2c(F)cccc2c1 (centres unmarked) [Compound E-27]" result="135 to 137 °C"

Consider the additional molecule presented here.
Ask | State the recorded melting point for this entry: C=C(C)CC(C)(Cc1cccc(F)c1)C(=O)Nc1cnc2c(F)cccc2c1 (centres unmarked) [Compound E-11]
Reply | 125 to 127 °C
